Listed compounds paired with reported IC50
Target: BRD4-BD12 (Homo sapiens)
Construct: dual bromodomains (BRD4-BD12 (1-477), BRD4-BD12 (1-472)); six-His tag (N); made in house; host or cells: E. coli BL21-CodonPlus (DE3)
Experiment: Alphascreen binding assay, BRD4(1 2) H4
Settings: BRD4 dual bromodomains with acetylated Histone 4 peptide, read-out: Biochemical activity (IC50 μM) BRD4(1 2) H4

Worked cases, IC50 given:
Cc1noc(C)c1-c1cnc2cnn(CC3CCC(F)(F)CC3)c2c1 | ≤ 1 µM
Cc1noc(C)c1-c1cnc2[nH]cc(CC3CCC(F)(F)CC3)c2n1 | 1 to 10 µM
[2H]C([2H])(C1CCC(F)(F)CC1)n1ccc2ncc(-c3nn(C(F)F)nc3C)nc21 | 1 to 10 µM

Please look at the following compound next.
Look up IC50 for this compound: COC(=O)Cc1ccc(-c2cn(C(c3ccccc3)c3ccccn3)c3nc(-c4c(C)noc4C)cnc23)cc1 (stereo not shown) ≤ 1 µM
